- Test target: T1, human IL-23 (form not stated) (human, UniProt P29460 23-328)
- T1 sequence 1: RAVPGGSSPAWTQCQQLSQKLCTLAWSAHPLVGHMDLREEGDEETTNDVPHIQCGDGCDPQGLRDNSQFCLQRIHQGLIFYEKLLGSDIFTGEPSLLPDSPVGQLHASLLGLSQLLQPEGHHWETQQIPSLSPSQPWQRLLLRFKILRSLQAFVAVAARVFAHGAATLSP
- T1 sequence 2: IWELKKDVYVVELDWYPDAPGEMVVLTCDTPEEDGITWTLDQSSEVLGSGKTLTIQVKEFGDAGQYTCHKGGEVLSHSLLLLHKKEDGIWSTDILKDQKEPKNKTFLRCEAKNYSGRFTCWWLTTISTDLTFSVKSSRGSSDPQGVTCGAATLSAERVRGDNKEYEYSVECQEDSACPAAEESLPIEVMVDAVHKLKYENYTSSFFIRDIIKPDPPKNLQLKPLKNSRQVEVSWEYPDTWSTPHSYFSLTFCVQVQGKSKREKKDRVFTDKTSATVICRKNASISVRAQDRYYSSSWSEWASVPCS
- Test protocol: cell-based or functional assay
Measured property: Splenocyte assay IC50 (IL-17 production by mouse splenocytes) (nM)
All answers are understood in nM, so give the number only.

Worked cases, Splenocyte assay IC50 (IL-17 production by mouse splenocytes) given:
# Binder, Output unit, Experimental value
measured = [
    ("mouse anti-human IL-23p19 antibody 1D6 (antibody, V domains shown) VH: EVQLQQSGPDLVKPGASVKMSCKASGYTFTAYLIHWVKRSHGKSLDWIGYINPNDGVTSYNQKFKGKATLTVNKSSGTAYMELRSLTSEDAAVYYCTLNWDLDYWGQGTTLTVSS VL: DIVMTQSPATLSVTPGDRVSLSCRASQSISDYLHWYQQKSHESPRLLIKYASQSISGIPSRFSGSGSGSDFTLSITNVEPEDVGIYYCQNGHSFPFTFGSGTKLEIKR", "nM", 0.027),
    ("mouse anti-human IL-23p19 antibody 2G12 (antibody, V domains shown) VH: EVQLQQSGPELVKPGASVKMSCKASGYTFTCCILHWVKQKPGQGLEWIGYINPYNDGTKYNEKFKGKATLTSDKSSRTAYMELSSLTSEDSAVYYCARRWDEAYWGQGTLVTVSA VL: DIVMTQSPATLSVTPGDRVSLSCRASQSISAYLHWYQQKSHESPRLLIKYASQSISGIPSRFSGSGSGSDFTLSINSVEPEDVGIYYCQNGHSFPFTFGSGTKLEIKR", "nM", 0.106),
    ("mouse anti-human IL-23p19 antibody 14A3 (antibody, V domains shown) VH: EVILVESGGGFVKPGGSLKLSCAASGFTFSNYGMSWVRQTPDKGLEWVATISTGGRYIYYSDTVKGRFTISRDNAKSTLYLKMSSLRSEDTAVHFCARHEGDRYYGWYFDVWGAGTTVTVSS VL: DIVLTQSPASLAVSLGQRATISCKASQSVDYDGESYMNWYQQKPGQPPKLLIYTSSSLASGIPARFSGSGSGTNFTLNIHPVEEEDAATYCCQQGNEDLFTFGSGTKLEIKR", "nM", 0.053),
    ("mouse anti-human IL-23p19 antibody 2C6 (antibody, V domains shown) VH: EVQLQQSGPELVKPGASVKMSCKASGYTFTRYLIHWVKQKPGQGLEWIGYVNPYNDGTNYNEKFRGKATLTSDKSSSTAYMELSSLTSEDSAVYYCTSNWDLNYWGQGTTLTVSS VL: DIVMTQSPATLSVTPGDRVSLSCRASQSISDYLYWYQQKSHESPRLLIKYASQSISGIPSRFSGSGSGSDFTLSINSVEPEDVGVYFCQNGHSFPFTFGSGTKLEIKR", "nM", 0.037),
]

Q: Give reported Splenocyte assay IC50 (IL-17 production by mouse splenocytes) value for mouse anti-human IL-23p19 antibody 16F7 (antibody, V domains shown) VH: EVQLVESGGDLVKPGGSLKLSCAASGFIFNSYGMSWVRQTPDKRLEWVATISSGGRNTYYPDSVKGRFTISRDNAKNTLYLQMSSLKSEDTAMYYCARQGGYEGYVDVWGIGTTVTVSS VL: DIVMTQSHRFMSTSVGDRVSITCKASQDVSSAVAWYQQKPGQSPNLLIYSASFRNTGVPDRFTGSGSGTDFTFTISGVQAEDLAVYYCQQHHSTPLTFGAGTKLELKR
Result: 0.155
